Before we begin, note that these IC50 values for BTK (Homo sapiens) originate from several publications.

- compound: "O=C(NC1CCCc2cc(-c3ncnc4[nH]ncc34)ccc21)c1ccc(C(F)(F)F)cn1 (centres unmarked)"
  IC50: "1 to 10 µM"
- compound: "N#CC1(C(=O)Nc2cccc(Nc3cc(Nc4ccc(F)c(Cl)c4)ncn3)c2)CC1"
  IC50: "≥ 10 µM"
- compound: "CC(C)(C)c1ccnc(C(=O)NC2CCCc3cc(-c4ncnc5[nH]ncc45)ccc32)c1 (centres unmarked)"
  IC50: "1 to 10 µM"
- compound: "C=CC(=O)N1CC(Nc2cncc(-c3cnc(Nc4ccc(F)c(Cl)c4)nc3)n2)C1"
  IC50: "< 0.005 µM"
- compound: "CCN1CCn2nc(Nc3cc(-c4ccc(CNC(=O)c5cnn(C(C)(C)C)c5)c(C)c4)ncn3)cc2C1"
  IC50: "< 0.01 µM"
- compound: "Cc1ccc2c(N)c(C(N)=O)nnc2c1-c1ccc2c(C)n[nH]c2c1"
  IC50: "0.0631 µM"
- compound: "Cc1cnc2[nH]cc(C(=O)c3c(F)ccc(NS(=O)(=O)N4CCCC4)c3F)c2c1"
  IC50: "≤ 10 µM"
- compound: "CC(C)n1cc(-c2ccnc(N3CCn4c(cc5c4CC(C)(C)C5)C3=O)c2CO)cc(Nc2ccc(N3CCN(C4COC4)C[C@@H]3C)cn2)c1=O"
  IC50: "0.00026 µM"
